target: rat brain farnesyl protein transferase (PFT) (Rattus norvegicus, UniProt Q02293+Q04631); construct: 40-fold purified rat brain farnesyl protein transferase; from tissue; host or cells: rat brain; experiment: PFT inhibitory activity assay (radiolabeled farnesyl pyrophosphate, biotinyl peptide, streptavidin beads); format: biochemical; settings: 40-fold purified rat brain enzyme; 0.12 μM [3H]FPP, 0.1 μM biotinyl-Ahe-Tyr-Lys-Cys-Val-Ile-Met; 37° C., 30 minutes; read-out: IC50 (μM) against PFT
Sequence (Q02293 whole entry, one chain of several): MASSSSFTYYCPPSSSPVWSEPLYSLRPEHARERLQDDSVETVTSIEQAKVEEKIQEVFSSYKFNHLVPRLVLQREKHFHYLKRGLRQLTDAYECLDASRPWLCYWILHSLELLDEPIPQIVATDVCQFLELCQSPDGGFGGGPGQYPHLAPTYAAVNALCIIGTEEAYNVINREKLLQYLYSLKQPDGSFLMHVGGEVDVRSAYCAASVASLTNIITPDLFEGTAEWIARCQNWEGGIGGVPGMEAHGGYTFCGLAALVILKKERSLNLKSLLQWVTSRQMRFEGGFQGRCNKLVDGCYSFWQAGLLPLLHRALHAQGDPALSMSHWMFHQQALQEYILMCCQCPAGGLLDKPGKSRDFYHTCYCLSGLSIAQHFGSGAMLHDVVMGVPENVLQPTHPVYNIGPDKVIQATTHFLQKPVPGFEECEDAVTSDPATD
Numbered stars: 1 amine (or outer) side, 2 acyl side, 3 side chain; on linkers, the order of the positions; unused ones are H or OH. Peptide text beside a SMILES is read from it. * marks the point of attachment. CO = O=C([*:1])[*:2]; NHBn = c1ccc(CN*)cc1; Bn = c1ccc(C*)cc1
REPORTED ENDPOINT: IC50
Write down the value, and be sure its unit follows.

Reference set, count: 3
Q: Fill blank: measured IC50 of the compound O=C(NC1CCCCC1)N[C@H](Cc1c[nH]cn1)C(=O)N[C@@H](Cc1ccc(OCc2ccccc2)cc1)C(=O)NCc1ccccc1 is ____.
A: 66 µM

Q: Look at this compound and give its reported IC50. COc1ccccc1CCCNC(=O)[C@H](Cc1ccc(OCc2ccccc2)cc1)NC(=O)[C@@H](Cc1c[nH]cn1)NS(=O)(=O)c1ccc(C)cc1
A: 2.9 µM

Q: For the compound shown here, O=C(NCc1ccccc1)N[C@@H](Cc1c[nH]cn1)C(=O)N[C@@H](Cc1ccc(OCc2ccccc2)cc1)C(=O)NCCCOc1ccccc1 , give the reported IC50.
A: 1 µM

Next item in the queue.
Q: Returns the measured IC50 for the input compound. Input: COC(=O)[C@H](COCc1ccccc1)NC(=O)[C@H](Cc1ccc(OCc2ccccc2)cc1)NC(=O)[C@H](Cc1c[nH]cn1)NC(=O)NCc1ccccc1 [Example 17] ({NHBn-CO}-His-Tyr(Bn)-Ser(Bn)-OMe)
A: 0.039 µM
